The reported numbers originate from ChEMBL document CHEMBL4130502.

- TEST_DESCRIPTION: Stability in rat liver microsomes assessed as parent compound remaining at 1 uM preincubated for 5 mins followed by NADPH addition measured after 30 mins by LC-MS/MS analysis
- Type: ADME, microsome
- MEASUREMENT_CONDITIONS: read-out: Stability
Answer each item with its documented remaining at 0.5 h, 1 µM.
One number for each entry, in %.

MOLECULAR_STRING: CCc1nnc(SCC(=O)N(C)c2ccccc2)c2cc3sc(C)cc3n12
remaining at 0.5 h, 1 µM [%]: 9

--- query ---
Ask | Fill in remaining at 0.5 h, 1 µM for record "CCc1nnc(SCC(=O)N(C)c2ccccc2)c2cc3sccc3n12"
Reply | 6.4
